For each record, write down the corresponding inhibition at 10 µM.
Target: PI3Kβ (p110β/p85α) (Homo sapiens, UniProt P42338)
Construct: purchased Invitrogen
Sequence (P42338 whole entry, one chain of several): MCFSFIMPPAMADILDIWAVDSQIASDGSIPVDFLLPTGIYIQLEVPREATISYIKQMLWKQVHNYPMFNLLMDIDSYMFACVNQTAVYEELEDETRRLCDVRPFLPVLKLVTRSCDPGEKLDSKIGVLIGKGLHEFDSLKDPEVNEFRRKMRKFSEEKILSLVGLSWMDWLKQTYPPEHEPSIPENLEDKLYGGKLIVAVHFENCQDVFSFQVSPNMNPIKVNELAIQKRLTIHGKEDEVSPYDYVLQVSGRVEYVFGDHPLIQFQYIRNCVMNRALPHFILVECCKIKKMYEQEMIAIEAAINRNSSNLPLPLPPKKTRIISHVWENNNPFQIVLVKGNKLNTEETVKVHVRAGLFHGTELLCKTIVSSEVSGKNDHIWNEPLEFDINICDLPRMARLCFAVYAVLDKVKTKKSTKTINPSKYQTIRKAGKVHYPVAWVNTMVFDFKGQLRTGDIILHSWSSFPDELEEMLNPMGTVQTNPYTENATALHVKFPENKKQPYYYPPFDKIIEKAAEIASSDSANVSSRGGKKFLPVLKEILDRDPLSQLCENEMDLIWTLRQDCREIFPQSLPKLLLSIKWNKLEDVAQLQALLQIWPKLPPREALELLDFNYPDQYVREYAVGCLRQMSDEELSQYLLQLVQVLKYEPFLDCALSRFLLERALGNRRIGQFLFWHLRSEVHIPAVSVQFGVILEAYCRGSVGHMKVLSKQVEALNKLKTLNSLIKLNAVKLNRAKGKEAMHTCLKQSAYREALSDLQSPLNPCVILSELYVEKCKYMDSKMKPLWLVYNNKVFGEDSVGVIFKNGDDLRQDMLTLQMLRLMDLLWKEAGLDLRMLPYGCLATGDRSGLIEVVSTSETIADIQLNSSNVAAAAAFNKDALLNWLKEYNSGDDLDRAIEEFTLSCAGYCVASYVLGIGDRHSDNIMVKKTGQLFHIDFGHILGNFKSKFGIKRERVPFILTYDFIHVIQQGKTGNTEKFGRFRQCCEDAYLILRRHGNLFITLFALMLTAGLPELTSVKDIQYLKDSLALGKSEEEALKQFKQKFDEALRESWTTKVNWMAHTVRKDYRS
Assay: PI3K biochemical enzyme assay (Adapta universal kinase assay), p110 beta/p85 alpha
Settings: 10 μM; read-out: PI3Kβ % inhib
Protocol: This example describes a method of obtaining in vitro activity data concerning the effect of compounds of on various PI3K isoforms. The effect of compounds on the kinase activity of Class I PI3Ks was measured at Invitrogen by using the Adapta® universal kinase assay. It was a homogenous, fluorescent based immunoassay for the detection of ADP produced by the kinase reaction. […] ADP formation was determined by calculating the emission ratio from the assay well. […]
Number in %, nothing else.

Prompt: Provide measured inhibition at 10 µM value, entry: Cc1cccc(-c2nc3ccccc3nc2C(C)Nc2ncnc3[nH]cnc23)c1 (centres unmarked) [Compound Q3]
Response: 25

Prompt: Please report the measured inhibition at 10 µM for Cc1ccc(-c2nc3ccccc3nc2C(C)Nc2ncnc3[nH]cnc23)cc1 (centres unmarked) [Compound Q11]
Response: 76

Prompt: Return reported inhibition at 10 µM. Input compound: Cc1cccc2nc(C(C)n3cnc4c(N)ncnc43)c(-c3ccccc3)nc12 (centres unmarked) [Compound Q6]
Response: 61

Prompt: # return recorded inhibition at 10 µM for input CC(Nc1ncnc2[nH]cnc12)c1nc2ccccc2nc1-c1c(F)cccc1F (centres unmarked) [Compound Q10]
Response: 30

Prompt: Supply inhibition at 10 µM value. Item: CCC(Nc1ncnc2[nH]cnc12)c1nc2ccccc2nc1-c1ccccc1 (centres unmarked) [Compound Q12]
Response: 75

====

Assign inhibition at 10 µM to each entry below.
target: PI3Kδ (p110δ/p85α) (Homo sapiens, UniProt O00329); construct: purchased Invitrogen; experiment: PI3K biochemical enzyme assay (Adapta universal kinase assay), p110 delta/p85 alpha; settings: 10 μM; read-out: PI3Kδ % inhib
Sequence (O00329 whole entry, one chain of several): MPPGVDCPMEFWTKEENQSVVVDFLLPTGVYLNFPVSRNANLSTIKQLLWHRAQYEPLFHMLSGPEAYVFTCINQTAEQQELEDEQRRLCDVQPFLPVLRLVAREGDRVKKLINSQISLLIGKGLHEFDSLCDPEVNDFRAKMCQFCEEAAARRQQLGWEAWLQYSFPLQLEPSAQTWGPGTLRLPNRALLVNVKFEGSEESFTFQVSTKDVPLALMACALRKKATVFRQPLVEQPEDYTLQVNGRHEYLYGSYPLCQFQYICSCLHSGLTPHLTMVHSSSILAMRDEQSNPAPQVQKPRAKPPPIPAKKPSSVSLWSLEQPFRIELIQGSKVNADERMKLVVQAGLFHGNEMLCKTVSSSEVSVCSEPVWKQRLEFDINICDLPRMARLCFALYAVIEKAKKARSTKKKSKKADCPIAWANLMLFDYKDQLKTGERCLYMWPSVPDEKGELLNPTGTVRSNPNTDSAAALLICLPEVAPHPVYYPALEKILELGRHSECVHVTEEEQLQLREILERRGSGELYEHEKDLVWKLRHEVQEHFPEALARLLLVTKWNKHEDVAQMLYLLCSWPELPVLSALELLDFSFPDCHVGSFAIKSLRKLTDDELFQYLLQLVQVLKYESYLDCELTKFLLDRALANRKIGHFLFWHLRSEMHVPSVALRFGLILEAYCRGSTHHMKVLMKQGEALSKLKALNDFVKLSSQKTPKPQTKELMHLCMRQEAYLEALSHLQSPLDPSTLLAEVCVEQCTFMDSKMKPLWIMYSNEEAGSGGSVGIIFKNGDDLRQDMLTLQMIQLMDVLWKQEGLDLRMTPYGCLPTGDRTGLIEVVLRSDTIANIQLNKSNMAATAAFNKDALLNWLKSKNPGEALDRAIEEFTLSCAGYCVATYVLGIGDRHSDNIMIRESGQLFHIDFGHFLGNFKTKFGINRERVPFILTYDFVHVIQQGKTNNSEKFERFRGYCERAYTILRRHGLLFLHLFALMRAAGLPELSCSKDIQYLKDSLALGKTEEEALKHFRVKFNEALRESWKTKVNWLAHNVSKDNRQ
Kindly provide the numeric value in % only, without the unit symbol.

Prompt: Please report inhibition at 10 µM for the following compound: Cc1cccc2nc(C(C)n3cnc4c(N)ncnc43)c(-c3ccccc3)nc12 (stereo not shown)
Response: 100

Prompt: Identify measured inhibition at 10 µM corresponding to Cc1ccc(-c2nc3ccccc3nc2C(C)Nc2ncnc3[nH]cnc23)cc1 (stereo not shown)
Response: 99

Prompt: Please look at this compound and report its inhibition at 10 µM: CCC(Nc1ncnc2[nH]cnc12)c1nc2cccc(C)c2nc1-c1ccccc1 (stereo not shown)
Response: 100

Prompt: State its inhibition at 10 µM for this compound: CCC(Nc1ncnc2[nH]cnc12)c1nc2ccccc2nc1-c1ccccc1 (stereo not shown)
Response: 100

====

For each of the compounds below, state its pIC50.
target: PI3Kδ (p110δ/p85α) (Homo sapiens); construct: purchased Invitrogen; experiment: PI3K biochemical enzyme assay (Adapta universal kinase assay), p110 delta/p85 alpha; conditions: Table 1, lower part; read-out: PI3Kδ IC50
Note: pIC50 values are expressed as the negative base-10 logarithm of concentration in M.

Prompt: Answer briefly: pIC50 recorded on PI3Kδ (p110δ/p85α) (Homo sapiens) for `Nc1nc(NCc2nc3ccccc3nc2-c2ccccc2)c2nc[nH]c2n1`
Response: 7.12

Prompt: Enter measured pIC50, system PI3Kδ (p110δ/p85α) (Homo sapiens), for the compound shown: `Nc1nc(SCc2nc3ccccc3nc2-c2ccccc2)c2nc[nH]c2n1`
Response: 6.60

Prompt: Using PI3Kδ (p110δ/p85α) (Homo sapiens) as the test system, report measured pIC50 of `c1ccc(-c2nc3ccccc3nc2CSc2ncnc3[nH]cnc23)cc1` .
Response: 6.02

Prompt: Under PI3Kδ (p110δ/p85α) (Homo sapiens): report pIC50 of `Nc1ncnc2c1ncn2Cc1nc2ccccc2nc1-c1ccccc1` .
Response: 5.93

Prompt: Name the recorded pIC50 of `c1ccc(-c2nc3ccccc3nc2CNc2ncnc3[nH]cnc23)cc1` , assay system PI3Kδ (p110δ/p85α) (Homo sapiens).
Response: 6.72

====

Molecular target: PI3Kα (p110α/p85α) (Homo sapiens, UniProt P42336)
Construct: purchased Invitrogen
Sequence (P42336 whole entry): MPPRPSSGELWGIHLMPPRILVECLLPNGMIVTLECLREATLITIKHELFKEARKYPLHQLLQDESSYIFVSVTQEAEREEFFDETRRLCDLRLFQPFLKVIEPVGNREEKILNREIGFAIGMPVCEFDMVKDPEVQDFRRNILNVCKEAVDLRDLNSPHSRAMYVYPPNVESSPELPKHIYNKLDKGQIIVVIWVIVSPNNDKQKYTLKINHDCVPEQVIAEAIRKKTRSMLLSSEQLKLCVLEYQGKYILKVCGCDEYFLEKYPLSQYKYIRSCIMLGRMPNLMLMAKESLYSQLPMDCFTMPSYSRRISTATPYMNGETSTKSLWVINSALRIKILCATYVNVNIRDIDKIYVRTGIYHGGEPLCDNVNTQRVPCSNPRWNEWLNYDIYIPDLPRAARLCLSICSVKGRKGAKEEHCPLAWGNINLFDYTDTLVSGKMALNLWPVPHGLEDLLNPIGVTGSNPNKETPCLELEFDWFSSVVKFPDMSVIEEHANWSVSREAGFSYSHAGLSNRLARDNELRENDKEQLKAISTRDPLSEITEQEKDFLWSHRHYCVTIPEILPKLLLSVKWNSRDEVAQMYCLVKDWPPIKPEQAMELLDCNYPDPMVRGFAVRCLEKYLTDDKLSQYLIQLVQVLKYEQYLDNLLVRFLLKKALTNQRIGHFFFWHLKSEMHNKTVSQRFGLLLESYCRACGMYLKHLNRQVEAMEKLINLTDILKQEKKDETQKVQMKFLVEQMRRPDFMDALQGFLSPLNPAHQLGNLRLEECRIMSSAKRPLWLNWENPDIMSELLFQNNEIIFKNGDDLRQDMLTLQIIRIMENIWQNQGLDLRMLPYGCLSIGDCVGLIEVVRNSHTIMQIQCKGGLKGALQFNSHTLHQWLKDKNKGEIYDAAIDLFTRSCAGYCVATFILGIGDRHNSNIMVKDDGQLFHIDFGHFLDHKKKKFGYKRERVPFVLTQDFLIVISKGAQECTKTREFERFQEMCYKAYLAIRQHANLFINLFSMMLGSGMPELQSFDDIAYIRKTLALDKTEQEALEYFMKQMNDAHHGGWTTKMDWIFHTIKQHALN
Sequence (P27986 whole entry partner): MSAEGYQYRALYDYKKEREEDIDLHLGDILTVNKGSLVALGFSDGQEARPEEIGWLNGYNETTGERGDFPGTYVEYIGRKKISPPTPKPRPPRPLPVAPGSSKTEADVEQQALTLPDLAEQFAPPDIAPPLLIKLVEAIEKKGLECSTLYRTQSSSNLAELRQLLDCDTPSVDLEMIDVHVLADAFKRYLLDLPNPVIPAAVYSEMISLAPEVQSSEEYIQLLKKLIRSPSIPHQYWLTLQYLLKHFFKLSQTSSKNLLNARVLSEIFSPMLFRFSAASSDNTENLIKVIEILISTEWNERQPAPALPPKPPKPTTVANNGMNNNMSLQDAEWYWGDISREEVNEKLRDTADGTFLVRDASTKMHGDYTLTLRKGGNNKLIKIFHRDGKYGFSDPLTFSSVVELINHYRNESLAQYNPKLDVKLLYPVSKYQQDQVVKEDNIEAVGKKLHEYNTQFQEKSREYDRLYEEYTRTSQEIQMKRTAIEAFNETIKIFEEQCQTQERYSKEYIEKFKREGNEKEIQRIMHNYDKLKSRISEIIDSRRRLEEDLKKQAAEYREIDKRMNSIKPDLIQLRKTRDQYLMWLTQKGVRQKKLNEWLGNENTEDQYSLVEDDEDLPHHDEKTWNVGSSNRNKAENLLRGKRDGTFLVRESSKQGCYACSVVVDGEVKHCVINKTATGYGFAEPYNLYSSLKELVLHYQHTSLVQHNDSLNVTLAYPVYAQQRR
Assay: PI3K biochemical enzyme assay (Adapta universal kinase assay), p110 alpha/p85 alpha
Settings: 1 μM; read-out: PI3Kα % inhib
Method: This example describes a method of obtaining in vitro activity data concerning the effect of compounds of on various PI3K isoforms. The effect of compounds on the kinase activity of Class I PI3Ks was measured at Invitrogen by using the Adapta® universal kinase assay. It was a homogenous, fluorescent based immunoassay for the detection of ADP produced by the kinase reaction. […] ADP formation was determined by calculating the emission ratio from the assay well. […]
For each record, write down the corresponding inhibition at 1 µM.
Please respond with the number in % and leave the unit unwritten.

Prompt: Output inhibition at 1 µM of CC(Nc1ncnc2[nH]cnc12)c1nc2ccccc2nc1-c1ccccc1 (stereo not shown) [Compound Q1]
Response: 18

Prompt: Consider the compound Cc1cccc2nc(C(C)Nc3nc(N)nc4[nH]cnc34)c(-c3ccccc3)nc12 (stereo not shown) [Compound Q4] and give its recorded inhibition at 1 µM.
Response: 18

Prompt: Answer with the recorded inhibition at 1 µM of Cc1cccc2nc(C(C)Nc3nc(N)nc4[nH]cnc34)c(-c3ccc(F)cc3)nc12 (stereo not shown) [Compound Q5] only.
Response: 41

Prompt: Give inhibition at 1 µM for Cc1cccc2nc(C(C)Nc3ncnc4[nH]cnc34)c(-c3ccc(F)cc3)nc12 (stereo not shown) [Compound Q7]
Response: 28

====

Field: inhibition at 10 µM. Provide a value for each of the compounds that follow.
molecular target: PI3Kα (p110α/p85α) (Homo sapiens); construct: purchased Invitrogen; assay: PI3K biochemical enzyme assay (Adapta universal kinase assay), p110 alpha/p85 alpha; conditions: 10 μM; read-out: PI3Kα % inhib
# value in %; strip the unit string

Prompt: Return reported inhibition at 10 µM. Input compound: Cc1cccc2nc(C(C)n3cnc4c(N)ncnc43)c(-c3ccccc3)nc12 (stereo not drawn)
Response: 32

Prompt: Specify reported inhibition at 10 µM for the compound shown: Cc1cccc2nc(C(C)Nc3nc(N)nc4[nH]cnc34)c(-c3ccc(F)cc3)nc12 (stereo not drawn)
Response: 97

Prompt: Give inhibition at 10 µM for Cc1cccc2nc(C(C)Nc3nc(N)nc4[nH]cnc34)c(-c3ccccc3)nc12 (stereo not drawn)
Response: 92

====

biological target: PI3Kγ (p110 gamma) (Homo sapiens); construct: purchased Invitrogen; assay: PI3K biochemical enzyme assay (Adapta universal kinase assay), p110 gamma; settings: 1 μM; read-out: PI3Kγ % inhib
Could you please report measured inhibition at 1 µM for the items listed next?
Number only, in %; omit the unit.

Prompt: Supply reported inhibition at 1 µM belonging to this compound: CC(Nc1ncnc2[nH]cnc12)c1nc2ccccc2nc1-c1c(F)cccc1F (stereo not shown)
Response: 12

Prompt: Read off the recorded inhibition at 1 µM for Cc1cccc(-c2nc3ccccc3nc2C(C)Nc2ncnc3[nH]cnc23)c1 (stereo not shown)
Response: 51

Prompt: Item CCC(Nc1ncnc2[nH]cnc12)c1nc2cccc(F)c2nc1-c1ccccc1 (stereo not shown) : provide inhibition at 1 µM
Response: 37

Prompt: Answer with the recorded inhibition at 1 µM for the compound listed here: Cc1cccc2nc(C(C)Nc3ncnc4[nH]cnc34)c(-c3ccc(F)cc3)nc12 (stereo not shown)
Response: 61

Prompt: Give the value of inhibition at 1 µM reported for the following: CCC(Nc1ncnc2[nH]cnc12)c1nc2ccccc2nc1-c1ccccc1 (stereo not shown)
Response: 44

Prompt: Note inhibition at 1 µM for the compound shown: Cc1cccc2nc(C(C)n3cnc4c(N)ncnc43)c(-c3ccccc3)nc12 (stereo not shown)
Response: 48

Prompt: Quickly give me recorded inhibition at 1 µM for Cc1cccc2nc(C(C)Nc3nc(N)nc4[nH]cnc34)c(-c3ccccc3)nc12 (stereo not shown)
Response: 84

====

molecular target: PI3Kδ (p110δ/p85α) (Homo sapiens); construct: purchased Invitrogen; test: PI3K biochemical enzyme assay (Adapta universal kinase assay), p110 delta/p85 alpha; conditions: Table 2, PI3k biochemical assays; read-out: p110δ/p85α IC50
experimental_endpoint: IC50 (nM)
Write the answer as a number in nM, unit excluded.

Prompt: State its IC50: CC(Nc1ncnc2[nH]cnc12)c1nc2ccccc2nc1-c1ccccc1 (stereo not drawn)
Response: 14

Prompt: Query IC50 for CC(Nc1ncnc2[nH]cnc12)c1nc2ccccc2nc1-c1cc(F)cc(F)c1 (stereo not drawn)
Response: 58

Prompt: Provide one value: measured IC50 of Cc1cccc2nc(C(C)Nc3nc(N)nc4[nH]cnc34)c(-c3ccccc3)nc12 (stereo not drawn)
Response: 2

====

target: PI3Kγ (p110 gamma) (Homo sapiens, UniProt P48736); construct: purchased Invitrogen; test: PI3K biochemical enzyme assay (Adapta universal kinase assay), p110 gamma; settings: Table 2, PI3k biochemical assays; read-out: p120γ IC50
Sequence (P48736 whole entry): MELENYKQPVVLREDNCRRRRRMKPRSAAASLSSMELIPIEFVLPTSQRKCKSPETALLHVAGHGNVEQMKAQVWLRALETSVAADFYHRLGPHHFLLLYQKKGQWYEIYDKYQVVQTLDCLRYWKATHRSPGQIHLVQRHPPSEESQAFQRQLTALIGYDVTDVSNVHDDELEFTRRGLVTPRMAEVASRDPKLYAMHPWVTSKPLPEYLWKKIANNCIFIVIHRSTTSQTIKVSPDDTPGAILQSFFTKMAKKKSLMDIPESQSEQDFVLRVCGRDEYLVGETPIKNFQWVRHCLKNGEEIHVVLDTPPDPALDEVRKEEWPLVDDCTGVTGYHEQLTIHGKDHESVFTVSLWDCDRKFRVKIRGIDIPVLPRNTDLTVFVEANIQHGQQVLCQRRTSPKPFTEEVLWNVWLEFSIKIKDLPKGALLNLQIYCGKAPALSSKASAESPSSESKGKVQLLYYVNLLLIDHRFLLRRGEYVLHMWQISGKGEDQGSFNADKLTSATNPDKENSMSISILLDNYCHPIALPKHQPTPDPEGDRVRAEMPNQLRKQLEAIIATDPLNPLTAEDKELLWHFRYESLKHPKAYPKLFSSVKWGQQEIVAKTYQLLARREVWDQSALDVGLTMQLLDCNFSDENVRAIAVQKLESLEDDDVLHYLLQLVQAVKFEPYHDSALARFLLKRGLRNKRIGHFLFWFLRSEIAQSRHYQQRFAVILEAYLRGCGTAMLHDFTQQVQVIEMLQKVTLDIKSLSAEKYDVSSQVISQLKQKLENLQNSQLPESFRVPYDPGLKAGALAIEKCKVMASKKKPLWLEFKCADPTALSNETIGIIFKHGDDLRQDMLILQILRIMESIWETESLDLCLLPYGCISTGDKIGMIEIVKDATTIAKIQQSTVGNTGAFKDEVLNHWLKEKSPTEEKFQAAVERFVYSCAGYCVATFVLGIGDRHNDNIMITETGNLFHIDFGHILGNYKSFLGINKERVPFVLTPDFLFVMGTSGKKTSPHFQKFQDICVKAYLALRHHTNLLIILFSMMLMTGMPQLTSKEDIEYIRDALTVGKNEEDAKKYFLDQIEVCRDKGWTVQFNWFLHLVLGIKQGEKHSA
experimental_endpoint: log10(IC50) (log10 of the value in nM)
The figures below represent log10 of IC50, where IC50 is stated in nM.

Prompt: Please report the measured log10(IC50) for CCC(Nc1ncnc2[nH]cnc12)c1nc2cccc(F)c2nc1-c1ccccc1 (stereo not shown) [Compound Q9]
Response: 3.33

Prompt: # return recorded log10(IC50) for input CC(Nc1ncnc2[nH]cnc12)c1nc2ccccc2nc1-c1cc(F)cc(F)c1 (stereo not shown) [Compound Q2]
Response: 3.76

Prompt: Supply measured log10(IC50) of Cc1cccc2nc(C(C)Nc3nc(N)nc4[nH]cnc34)c(-c3ccccc3)nc12 (stereo not shown) [Compound Q4] in your reply.
Response: 0.90

Prompt: Give log10(IC50) for Cc1cccc(-c2nc3ccccc3nc2C(C)Nc2ncnc3[nH]cnc23)c1 (stereo not shown) [Compound Q3]
Response: 3.32

Prompt: Read off the recorded log10(IC50) for CCC(Nc1ncnc2[nH]cnc12)c1nc2ccccc2nc1-c1ccccc1 (stereo not shown) [Compound Q12]
Response: 2.88

Prompt: Indicate the recorded log10(IC50) value for this molecule: Cc1cccc2nc(C(C)Nc3nc(N)nc4[nH]cnc34)c(-c3ccc(F)cc3)nc12 (stereo not shown) [Compound Q5]
Response: 0.30

Prompt: Please give measured log10(IC50) of the following entry: CC(Nc1ncnc2[nH]cnc12)c1nc2ccccc2nc1-c1ccccc1 (stereo not shown) [Compound Q1]
Response: 2.17
